The entries below are paired with their reported ELISA Fc Control (RLU).
molecular target: unrelated Fc-fused recombinant protein; test: ELISA, negative control Fc protein
// return numeric value only (unit: RLU, not printed)

| binder | units-text | observed |
| --- | --- | --- |
| ISOP193ER9P1G4 (designed binder, not shown: small tags and cut ends) LPAPKNLVVSRVTEDSARLSWTAPDAAFDSFDIYYFEHPVGGEAIVLTVPGSERSYDLTGLKPGTEYLVTIYGVKGGNFSFPLSAIFTT | RLU | 1440 |

Would you kindly look at the next entry?
Fill blank: measured ELISA Fc Control (RLU) of the binder ISOP193AR9P1G11 (designed binder, not shown: small tags and cut ends) LPAPKNLVVSRVTEDSARLSWTNEQITKYGFDSFLIQYQESEKVGEAIVLTVPGSERSYDLTGLKPGTEYTVSIYGVGRHYTVYDSNPLSAIFTT is ____.
2240
